Recorded values, source the supplement of paper PMC10065799.

- experimental_system: SHP2-C SH2;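 also: peptide library displayed on the E. coli surface as eCPX fusions, selected cells deep-sequenced, score is each peptide's frequency after selection divided by its frequency in the input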
- measurement_description: SH2 binding enrichment of the phosphorylated peptide, bacterial display (enrichment ratio); higher = better substrate or ligand; peptides without Tyr show the background
Readings of SH2 binding enrichment for the listed sequences
measurement_type: SH2 binding enrichment

{"input_sequence": "YGMSSYITRED [FNDC3B_Y180_T179S]", "experimental_system": "SHP2-C SH2", "measurement_type": "SH2 binding enrichment", "measured": 0.669}
{"input_sequence": "EWLRGYLENGK [HLA-C_Y195_R194G]", "experimental_system": "SHP2-C SH2", "measurement_type": "SH2 binding enrichment", "measured": 1.06}
{"input_sequence": "SVVVCYEPPEV [TP53_Y220_P219C]", "experimental_system": "SHP2-C SH2", "measurement_type": "SH2 binding enrichment", "measured": 0.656}
{"input_sequence": "SVKVYYKKCWF [EPHA7_Y202_S207F]", "experimental_system": "SHP2-C SH2", "measurement_type": "SH2 binding enrichment", "measured": 0.657}
{"input_sequence": "EACPSYSHVVL [CHST6_Y168_R166P]", "experimental_system": "SHP2-C SH2", "measurement_type": "SH2 binding enrichment", "measured": 1.75}
{"input_sequence": "LADKPYTFEDY [FXN_Y118]", "experimental_system": "SHP2-C SH2", "measurement_type": "SH2 binding enrichment", "measured": 0.588}
{"input_sequence": "TLRKTYGEMAD [ALB_Y108_E106K]", "experimental_system": "SHP2-C SH2", "measurement_type": "SH2 binding enrichment", "measured": 0.537}
{"input_sequence": "HPFHVYSQPGM [BAG3_Y114_P115S]", "experimental_system": "SHP2-C SH2", "measurement_type": "SH2 binding enrichment", "measured": 0.806}
{"input_sequence": "FTRNFYVQAVL [CYBA_Y88_R90Q_YF]", "experimental_system": "SHP2-C SH2", "measurement_type": "SH2 binding enrichment", "measured": 0.78}
{"input_sequence": "FSAPNCCFRCG [PPP2CA_Y265_Y265C_YF]", "experimental_system": "SHP2-C SH2", "measurement_type": "SH2 binding enrichment", "measured": 0.751}
{"input_sequence": "DSILVYQRKEQ [USH2A_Y1909_G1911R]", "experimental_system": "SHP2-C SH2", "measurement_type": "SH2 binding enrichment", "measured": 1.18}
{"input_sequence": "SLGSPYEQPPR [PDLIM4_Y137_G138E]", "experimental_system": "SHP2-C SH2", "measurement_type": "SH2 binding enrichment", "measured": 1}
{"input_sequence": "KGPGEYVNIEF [IRS1_Y896_S892G]", "experimental_system": "SHP2-C SH2", "measurement_type": "SH2 binding enrichment", "measured": 1.22}
{"input_sequence": "VMVCAYLLHRG [PTEN_Y138_I135V]", "experimental_system": "SHP2-C SH2", "measurement_type": "SH2 binding enrichment", "measured": 0.723}
{"input_sequence": "SDVDLYQVRIA [PSMD9_Y70_T74I]", "experimental_system": "SHP2-C SH2", "measurement_type": "SH2 binding enrichment", "measured": 0.793}
{"input_sequence": "TEGNGYISFNE [LCP1_Y28_D24E]", "experimental_system": "SHP2-C SH2", "measurement_type": "SH2 binding enrichment", "measured": 0.889}
{"input_sequence": "PLDGEHFTLQI [TP53_Y327_Y327H]", "experimental_system": "SHP2-C SH2", "measurement_type": "SH2 binding enrichment", "measured": 2.55}
{"input_sequence": "KNRDVYSSDYF [USP24_Y2134]", "experimental_system": "SHP2-C SH2", "measurement_type": "SH2 binding enrichment", "measured": 0.739}
{"input_sequence": "SWSTSYSGYRC [NKAPL_Y91_Y96C]", "experimental_system": "SHP2-C SH2", "measurement_type": "SH2 binding enrichment", "measured": 0.798}
{"input_sequence": "MSGDVYSTDFF [NTRK2_Y702_R699G_YF]", "experimental_system": "SHP2-C SH2", "measurement_type": "SH2 binding enrichment", "measured": 1.15}
{"input_sequence": "VDSTEYEVASQ [SLC7A7_Y7]", "experimental_system": "SHP2-C SH2", "measurement_type": "SH2 binding enrichment", "measured": 0.932}
{"input_sequence": "SMAKYYASGIA [ACADSB_Y373_E376G]", "experimental_system": "SHP2-C SH2", "measurement_type": "SH2 binding enrichment", "measured": 0.791}
